# Test system: RPMI-8226 Multiple Myeloma cell line
# experiment: DIMSCAN cytotoxicity, fenretinide + L-threo-sphinganines 3:1 (Example B2)
# Assay type: cell-based, human
# testConditions: 4-HPR 1.5 μM + L-threo-sphinganine 0.5 μM, 96 h
In this section, each of the compounds is paired with its reported CI (Combination Index).

The following compounds have reported results that may help.
CCCCCCCCCCCCCC[C@H](O)[C@@H](N)CO [C17, (2S,3S)-2-amino-1,3-heptadecanediol] :: 1.12
CCCCCCCCCCCCCCCCC[C@H](O)[C@@H](N)CO [C20, (2S,3S)-2-amino-1,3-icosanediol] :: 1.0

// below: CI (Combination Index) requested for another compound
Please provide the recorded CI (Combination Index) for CCCCCCCCCCCCCCCC[C@H](O)[C@@H](N)CO [C19, (2S,3S)-2-amino-1,3-nonadecanediol] , tested on RPMI-8226 Multiple Myeloma cell line.
0.9
